system: DLD-1 colon; experiment: NCI tumour cell line growth inhibition, 48 h
quantityMeasured: TGI

molecule: CC(=O)[CH-]C(=O)c1ccccc1.CC(=O)[CH-]C(=O)c1ccccc1.CC(=O)[CH-]C(=O)c1ccccc1.[Br-].[Zr+4]
targetUnderTest: DLD-1 colon
quantityMeasured: TGI
testResult: > 100 µM
--
molecule: C[Si](C)(C)/C=C/CN1C(=O)CCC1=O
targetUnderTest: DLD-1 colon
quantityMeasured: TGI
testResult: > 100 µM
--
molecule: Cc1ccc(NC(=O)CCC(=O)C2Cc3ccccc3C2=O)cc1C (stereo unspecified)
targetUnderTest: DLD-1 colon
quantityMeasured: TGI
testResult: > 100 µM
--
molecule: N#CCC(=O)Nc1ccccc1O
targetUnderTest: DLD-1 colon
quantityMeasured: TGI
testResult: > 100 µM
--
molecule: COC(=O)C(=O)C(C(C)=O)C(=O)C(=O)Nc1ccc(C)cc1C (stereo unspecified)
targetUnderTest: DLD-1 colon
quantityMeasured: TGI
testResult: > 100 µM
--
molecule: C/C=C1/C(=Cc2[nH]c(C=c3[nH]/c(=C/C4=NC(=O)C(CC)=C4C)c(C)c3CCC(=O)O)c(CCC(=O)O)c2C)NC(=O)C1C (stereo unspecified)
targetUnderTest: DLD-1 colon
quantityMeasured: TGI
testResult: > 50 µM
--
molecule: CN1C(=O)N(c2nc3ccccc3[nH]2)C(C)(C)C1=O
targetUnderTest: DLD-1 colon
quantityMeasured: TGI
testResult: > 100 µM
--
molecule: O=C(NCc1ccccc1)C1C(=O)C(=O)N(Cc2ccccc2)C1=O (stereo unspecified)
targetUnderTest: DLD-1 colon
quantityMeasured: TGI
testResult: > 100 µM
--
molecule: CC(=O)OCC1=CC2CCC3C(C)(CCC[C@]3(C)COC(C)=O)C23CC[C@H]1C3 (stereo partly specified)
targetUnderTest: DLD-1 colon
quantityMeasured: TGI
testResult: > 100 µM
--
molecule: N#CC(C#N)=C1CCC2C(=C(C#N)C#N)CCC12 (stereo unspecified)
targetUnderTest: DLD-1 colon
quantityMeasured: TGI
testResult: > 100 µM
--
molecule: O=C1C2C3C=C4c5ccccc5N(c5ccccc5)C4([C@@H]2C(=O)N1c1ccc(F)cc1)[C@H]1C(=O)N(c2ccc(F)cc2)C(=O)[C@@H]31 (stereo partly specified)
targetUnderTest: DLD-1 colon
quantityMeasured: TGI
testResult: > 100 µM

Data provenance is PubChem BioAssay (NCI).
